The entries below are paired with their reported melting point.

Reference set, count: 5
>>> reading("c1ccc(NCc2ccc3c(c2)Nc2nccnc2S3)cc1")
"183 to 186 °C"
>>> reading("O=C(O)c1ccc(CC2CCN(Cc3ccc4c(c3)Nc3nccnc3S4)CC2)cc1")
"158 to 161 °C"
>>> reading("c1cnc2c(c1)ccn2Cc1ccc2c(c1)Nc1nccnc1S2")
"202 to 204 °C"
>>> reading("OCCCCCCOc1ccc(NCc2ccc3c(c2)Nc2nccnc2S3)cn1")
"124 to 128 °C"
>>> reading("CC(CCC1CCN(Cc2ccc3c(c2)Sc2nccnc2N3)CC1)C(=O)O (stereo not drawn)")
"221 to 222 °C"

Input: Reported melting point for O=C(O)CC1CC2CCC(C1)N2Cc1ccc2c(c1)Nc1nccnc1S2 (stereo not drawn) : what is it?
Output: 155 to 158 °C

Input: Reported melting point for CC(C)(CO)C1C2CCCC1CN(Cc1ccc3c(c1)Nc1nccnc1S3)C2 (stereo not drawn) : what is it?
Output: 181 to 183 °C

Input: Reported melting point for OC(c1ccc2c(c1)Nc1nccnc1S2)c1ncccn1 (stereo not drawn) : what is it?
Output: 105 to 107 °C

Input: Reported melting point for NC(=O)C1CCCCN1Cc1ccc2c(c1)Nc1nccnc1S2 (stereo not drawn) : what is it?
Output: 209 to 211 °C

Input: Reported melting point for c1ccc2c(c1)CN(Cc1ccc3c(c1)Nc1nccnc1S3)C2 : what is it?
Output: 219 to 220 °C
